Source of measurements: paper PMC4156448

Test system: human hepatocellular liver carcinoma cell line (HepG2)
Assay: Cytotoxicity MTT assay, HepG2 cells
Type: cell-based
Settings: 24 h, unit only from tested concentrations
HepG2 MLD50 listing for selected molecules.

molecule: CC1=C(O)C(=O)c2ccccc2C1=O [Compound 13, 2-hydroxy-3-methyl-1,4-naphthoquinone]
testTarget: human hepatocellular liver carcinoma cell line (HepG2)
HepG2 MLD50: 5,308.2 ± 8.3 µM

Which value of HepG2 MLD50 has been reported for CC(C)=CCC1=C(O)C(=O)c2ccccc2C1=O [Compound 10, Lapachol] in the records? 1,491.7 ± 321.4 µM

Which value of HepG2 MLD50 has been reported for CC(C)/C=C/C1=C(O)C(=O)c2ccccc2C1=O [Compound 12, Iso-lapachol] in the records? ≥ 4,127.6 µM

Which value of HepG2 MLD50 has been reported for CC(C)=CC1=C(O)C(=O)c2ccccc2C1=O [Compound 11, Nor-lapachol] in the records? 1,698.6 ± 94.8 µM

###

Tested on: normal monkey kidney cells (BGM)
Test: Cytotoxicity MTT assay, BGM cells
Assay type: cell-based
Details: BGM cells, 24 h, MTT; unit only from tested concentrations
BGM MLD50 listing for selected compounds.

# example entries with known answers
compound: CC(C)/C=C/C1=C(O)C(=O)c2ccccc2C1=O
BGM MLD50: 1,388.9 ± 592.5 µM
--
compound: CC1=C(O)C(=O)c2ccccc2C1=O [Compound 13, 2-hydroxy-3-methyl-1,4-naphthoquinone]
BGM MLD50: ≥ 5,314.1 µM
--
compound: CC(C)=CCC1=C(O)C(=O)c2ccccc2C1=O
BGM MLD50: 1,785.1 ± 888.3 µM

Which value of BGM MLD50 has been reported for CC(C)=CC1=C(O)C(=O)c2ccccc2C1=O in the records? 1,608.8 ± 221.8 µM
